Target: T1, human GIP receptor (human) (UniProt P48546)
T1 sequence (looked up): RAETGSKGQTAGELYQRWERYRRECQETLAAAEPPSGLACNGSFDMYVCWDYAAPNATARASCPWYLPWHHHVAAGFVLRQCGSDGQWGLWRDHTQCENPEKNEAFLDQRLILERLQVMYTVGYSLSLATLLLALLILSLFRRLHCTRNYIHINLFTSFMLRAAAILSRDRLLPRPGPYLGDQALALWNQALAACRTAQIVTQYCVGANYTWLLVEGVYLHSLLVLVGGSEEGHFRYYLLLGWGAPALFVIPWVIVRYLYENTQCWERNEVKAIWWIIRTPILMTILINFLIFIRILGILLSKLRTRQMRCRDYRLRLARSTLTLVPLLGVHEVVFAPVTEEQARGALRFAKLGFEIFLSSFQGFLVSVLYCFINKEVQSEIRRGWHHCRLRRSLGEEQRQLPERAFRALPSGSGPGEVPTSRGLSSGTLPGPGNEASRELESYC
Experiment: cell-based or functional assay

BINDER	Relative cAMP EC50 [pM]
YXQGTFTSDFSXXLDKKAQXAFIEYLLEAGPSSGEPPPSEG (synthetic construct; SITE 2: note = 2-Aminoisobutyric Acid; SITE 12: note = L-ornithine; SITE 13: note = alpha-methyl-leucine; SITE 17: note = Lysine is chemically modified through conjugation of the epsilon-amino group of the Lysine side chain with (2-[2-(2-Amino-ethoxy)-ethoxy]-acetyl)2-(gamma-Glu)) [Example 116]	382
YXQGTFTSDXSQXLDXKAQXAFIEXLLEGGPSSGAPPPSGSEE (non-natural residues; lysine acylated γGlu-C18 diacid; C-terminal amide; synthetic construct; SITE 2: note = 2-Aminoisobutyric Acid; SITE 10: note = 3-(4-Pyridyl)-L-alanine; SITE 13: note = alpha-methyl-leucine; SITE 16: note = L-ornithine; SITE 17: note = Lysine is chemically modified through conjugation of the epsilon-amino group of the Lysine side chain with D-Glutami) [Example 1058]	139
YXQGTXTSDYSIXLDKKAQXAFIEYLEEGGPSSGAPPPE (synthetic construct; SITE 2: note = 2-Aminoisobutyric Acid; SITE 6: note = alpha-methyl-2-fluoro-L-phenylalanine; SITE 13: note = alpha-methyl-leucine; SITE 17: note = Lysine is chemically modified through conjugation of the epsilon-amino group of the Lysine side chain with (2-[2-(2-Amino-ethoxy)-et)) [Example 400]	15.8
YXQGTXTSDXSIXLDXKAQXEFIEXLLEGGPSSGAPPPSGE (Aib, αMeF(2F), 4Pal, Orn, (AEEA)2-γGlu-C18 diacid, amide; synthetic construct; SITE 2: note = 2-Aminoisobutyric Acid; SITE 6: note = alpha-methyl-2-fluoro-L-phenylalanine; SITE 10: note = 3-(4-Pyridyl)-L-alanine; SITE 13: note = alpha-methyl-leucine; SITE 16: note = L-ornithine; SITE 17: note = Lysine is chemically modified through conjugation of the epsil) [Example 613]	9.25
YXQGTFTSDXSQXLDXKAQXAFIEXLIAXGPSSGAPPPSGSEE (non-natural residues, acylated Lys, C-terminal amide; synthetic construct; SITE 2: note = 2-Aminoisobutyric Acid; SITE 10: note = 3-(4-Pyridyl)-L-alanine; SITE 13: note = alpha-methyl-leucine; SITE 16: note = L-ornithine; SITE 17: note = Lysine is chemically modified through conjugation of the epsilon-amino group of the Lysine side chain with (2-[2-(2-) [Example 1110]	59
YXQGTXTSDXSILLDKQAQKAFIEYLLEGGPSSGEPPPSEG (not fully specified; synthetic construct; SITE 2: note = 2-Aminoisobutyric Acid; SITE 6: note = alpha-methyl-2-fluoro-L-phenylalanine; SITE 10: note = 3-(4-Pyridyl)-L-alanine; SITE 20: note = Lysine is chemically modified through conjugation of the epsilon-amino group of the Lysine side chain with (2-[2-(2-Amino-ethoxy))) [Example 347]	63.4

Each recorded value in this set is attributed to patent US20240270821A1.
